- subject_of_test: Human BCL-XL protein (N-terminal HiBiT tagged BCL-XL in HT1080 cells) (Homo sapiens, UniProt Q07817)
- Construct: expressed in transfected cells; host or cells: HT-1080 (ATCC CCL-121), stably transduced with lentivirus pLV-UBC-N-HiBiT-BCL-XL-PGK-puro and selected with puromycin
- Sequence (Q07817 whole entry): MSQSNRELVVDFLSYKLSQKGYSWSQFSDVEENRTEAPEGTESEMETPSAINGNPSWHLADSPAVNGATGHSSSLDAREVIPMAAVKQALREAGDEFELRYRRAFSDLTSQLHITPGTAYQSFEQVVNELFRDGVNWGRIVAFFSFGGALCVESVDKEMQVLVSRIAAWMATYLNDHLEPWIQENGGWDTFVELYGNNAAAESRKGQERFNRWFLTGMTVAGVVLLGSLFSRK
- assay_notes: HiBiT based degradation assay
- Type: cell-based
- test_context: BCL-XL degradation; HT1080 cells expressing HiBiT-BCL-XL; 24 h; read-out: EC50 (24 h)

| compound | DC50 |
| --- | --- |
| Cc1c(OCC(F)(F)CN2C[C@@H](C)N(CC(=O)N3CCN(c4ccc5c(C6CCC(=O)NC6=O)nn(C)c5c4)CC3)[C@@H](C)C2)cccc1-c1ccc(N2CCc3cccc(C(=O)Nc4nc5ccccc5s4)c3C2)nc1C(=O)O (some centres unmarked) [Compound 185a] | < 100 nM |
| Cc1c(OCCCC[C@@H]2CCCN(CC(=O)Nc3cccc4c(C5CCC(=O)NC5=O)nn(C)c34)C2)cccc1-c1ccc(N2CCc3cccc(C(=O)Nc4nc5ccccc5s4)c3C2)nc1C(=O)O (some centres unmarked) [Compound 186a] | < 100 nM |

----------
- subject_of_test: Human BCL-XL protein (N-terminal HiBiT tagged BCL-XL in HT1080 cells) (Homo sapiens)
- Construct: expressed in transfected cells; host or cells: HT-1080 (ATCC CCL-121), stably transduced with lentivirus pLV-UBC-N-HiBiT-BCL-XL-PGK-puro and selected with puromycin
- assay_notes: HiBiT based degradation assay
- Format: cell-based
- test_context: BCL-XL degradation normalized with DMSO control; HT1080 cells expressing HiBiT-BCL-XL; 24 h
outcome_measure: Ymin (24 h)

| molecule | assay_value |
| --- | --- |
| Cc1c(Oc2ccc(CC(F)(F)CN3CCN(c4cccc5c(C6CCC(=O)NC6=O)nn(C)c45)CC3)cc2)cccc1-c1ccc(N2CCc3cccc(C(=O)Nc4nc5ccccc5s4)c3C2)nc1C(=O)O (centres unmarked) | A (Ymin < 50%) |
| Cc1c(O[C@H]2CC[C@H](C[C@@H](C)CN3CCN(c4cccc5c(C6CCC(=O)NC6=O)nn(C)c45)CC3)CC2)cccc1-c1ccc(N2CCc3cccc(C(=O)Nc4nc5ccccc5s4)c3C2)nc1C(=O)O (single isomer, unassigned) [Compound 284b] | A (Ymin < 50%) |

----------
- subject_of_test: Human BCL-XL protein (N-terminal HiBiT tagged BCL-XL in HT1080 cells) (Homo sapiens, UniProt Q07817)
- Construct: expressed in transfected cells; host or cells: HT-1080 (ATCC CCL-121), stably transduced with lentivirus pLV-UBC-N-HiBiT-BCL-XL-PGK-puro and selected with puromycin
- assay_notes: HiBiT based degradation assay
- Format: cell-based
- test_context: BCL-XL degradation normalized with DMSO control; HT1080 cells expressing HiBiT-BCL-XL; 24 h

| molecule | Ymin (24 h) |
| --- | --- |
| Cc1c(OCCCC2CCN(CC(=O)N3CCN(c4cccc5c(C6CCC(=O)NC6=O)nn(C)c45)CC3)CC2)cccc1-c1ccc(N2CCc3cccc(C(=O)Nc4nc5ccccc5s4)c3C2)nc1C(=O)O (stereo not shown) | A (Ymin < 50%) |
| Cc1c(O[C@H]2CC[C@H](CCCCN3CCC[C@@H](c4cccc5c(C6CCC(=O)NC6=O)nn(C)c45)C3)CC2)cccc1-c1ccc(N2CCc3cccc(C(=O)Nc4nc5ccccc5s4)c3C2)nc1C(=O)O (single isomer, unassigned) [Compound 351b] | A (Ymin < 50%) |
| Cc1c(O[C@H]2CC[C@H](CCCN3CCC(c4cccc5c(C6CCC(=O)NC6=O)nn(C)c45)C3)CC2)cccc1-c1ccc(N2CCc3cccc(C(=O)Nc4nc5ccccc5s4)c3C2)nc1C(=O)O (single isomer, unassigned) [Compound 320a] | A (Ymin < 50%) |
